# Test system: CAL-85-1
# assay-explanation: normalised viability (% of control), CellTiter-Blue; higher = more viable cells (about 100 = DMSO control)
# stated-conditions: 30 nM; incubation time: 72 h
Measured normalised viability values are reported for all entries that follow.
Lab note: write values as number then unit, every time.

What value of normalised viability has been reported for the following compound? Cn1cc(C2=Nc3cc(NC(=O)C(N)C4CCCCC4)cc4c3C2=CNNC4=O)cn1 (configuration not stated)
78.3%

Now this one: CC1(C)CNc2cc(NC(=O)c3cccnc3NCc3ccncc3)ccc21
80.9%

====

# System: CAL-85-1
# assay-explanation: normalised response (% of control), CellTox Green; higher = less cell death (100 = DMSO, 0 = benzethonium chloride kill control)
# stated-conditions: incubation time: 72 h
Param threshold (90%) applies to normalised response; output criterion met when value >= threshold, criterion not met when value < threshold.

Consider the worked cases shown below.
Cn1cnc2c(F)c(Nc3ccc(Br)cc3Cl)c(C(=O)NOCCO)cc21 [Selumetinib] (10000 nM) | criterion met
Cn1cc(C2=Nc3cc(NC(=O)C(N)C4CCCCC4)cc4c3C2=CNNC4=O)cn1 (stereo not given) (100 nM) | criterion not met
O=C1CN2Cc3c(ccc(Cl)c3Cl)N=C2N1 [Anagrelide] (1000 nM) | criterion met
O=C1CN2Cc3c(ccc(Cl)c3Cl)N=C2N1 [Anagrelide] (10000 nM) | criterion met
CC(=O)O[C@@]12CO[C@@H]1C[C@H](O)[C@@]1(C)C(=O)[C@H](O)C3=C(C)[C@@H](OC(=O)[C@H](O)[C@@H](NC(=O)OC(C)(C)C)c4ccccc4)C[C@@](O)([C@@H](OC(=O)c4ccccc4)[C@H]21)C3(C)C [Docetaxel] (1000 nM) | criterion not met

Then this compound:
Given COc1cc2c(cc1O)CC[C@@H]1[C@@H]2CC[C@]2(C)[C@@H](O)CC[C@@H]12 [2-methoxyestradiol] (1000 nM) , state whether its normalised response is at least 90%.
criterion not met
